Target: rat brain N-type calcium channel subunits (α1B+α2δ+β1b cDNA subunits) (Rattus norvegicus, UniProt Q02294)
Construct: expressed in transfected cells; host or cells: HEK 293 (stably, alternatively transiently, transfected)
Sequence (Q02294 whole entry): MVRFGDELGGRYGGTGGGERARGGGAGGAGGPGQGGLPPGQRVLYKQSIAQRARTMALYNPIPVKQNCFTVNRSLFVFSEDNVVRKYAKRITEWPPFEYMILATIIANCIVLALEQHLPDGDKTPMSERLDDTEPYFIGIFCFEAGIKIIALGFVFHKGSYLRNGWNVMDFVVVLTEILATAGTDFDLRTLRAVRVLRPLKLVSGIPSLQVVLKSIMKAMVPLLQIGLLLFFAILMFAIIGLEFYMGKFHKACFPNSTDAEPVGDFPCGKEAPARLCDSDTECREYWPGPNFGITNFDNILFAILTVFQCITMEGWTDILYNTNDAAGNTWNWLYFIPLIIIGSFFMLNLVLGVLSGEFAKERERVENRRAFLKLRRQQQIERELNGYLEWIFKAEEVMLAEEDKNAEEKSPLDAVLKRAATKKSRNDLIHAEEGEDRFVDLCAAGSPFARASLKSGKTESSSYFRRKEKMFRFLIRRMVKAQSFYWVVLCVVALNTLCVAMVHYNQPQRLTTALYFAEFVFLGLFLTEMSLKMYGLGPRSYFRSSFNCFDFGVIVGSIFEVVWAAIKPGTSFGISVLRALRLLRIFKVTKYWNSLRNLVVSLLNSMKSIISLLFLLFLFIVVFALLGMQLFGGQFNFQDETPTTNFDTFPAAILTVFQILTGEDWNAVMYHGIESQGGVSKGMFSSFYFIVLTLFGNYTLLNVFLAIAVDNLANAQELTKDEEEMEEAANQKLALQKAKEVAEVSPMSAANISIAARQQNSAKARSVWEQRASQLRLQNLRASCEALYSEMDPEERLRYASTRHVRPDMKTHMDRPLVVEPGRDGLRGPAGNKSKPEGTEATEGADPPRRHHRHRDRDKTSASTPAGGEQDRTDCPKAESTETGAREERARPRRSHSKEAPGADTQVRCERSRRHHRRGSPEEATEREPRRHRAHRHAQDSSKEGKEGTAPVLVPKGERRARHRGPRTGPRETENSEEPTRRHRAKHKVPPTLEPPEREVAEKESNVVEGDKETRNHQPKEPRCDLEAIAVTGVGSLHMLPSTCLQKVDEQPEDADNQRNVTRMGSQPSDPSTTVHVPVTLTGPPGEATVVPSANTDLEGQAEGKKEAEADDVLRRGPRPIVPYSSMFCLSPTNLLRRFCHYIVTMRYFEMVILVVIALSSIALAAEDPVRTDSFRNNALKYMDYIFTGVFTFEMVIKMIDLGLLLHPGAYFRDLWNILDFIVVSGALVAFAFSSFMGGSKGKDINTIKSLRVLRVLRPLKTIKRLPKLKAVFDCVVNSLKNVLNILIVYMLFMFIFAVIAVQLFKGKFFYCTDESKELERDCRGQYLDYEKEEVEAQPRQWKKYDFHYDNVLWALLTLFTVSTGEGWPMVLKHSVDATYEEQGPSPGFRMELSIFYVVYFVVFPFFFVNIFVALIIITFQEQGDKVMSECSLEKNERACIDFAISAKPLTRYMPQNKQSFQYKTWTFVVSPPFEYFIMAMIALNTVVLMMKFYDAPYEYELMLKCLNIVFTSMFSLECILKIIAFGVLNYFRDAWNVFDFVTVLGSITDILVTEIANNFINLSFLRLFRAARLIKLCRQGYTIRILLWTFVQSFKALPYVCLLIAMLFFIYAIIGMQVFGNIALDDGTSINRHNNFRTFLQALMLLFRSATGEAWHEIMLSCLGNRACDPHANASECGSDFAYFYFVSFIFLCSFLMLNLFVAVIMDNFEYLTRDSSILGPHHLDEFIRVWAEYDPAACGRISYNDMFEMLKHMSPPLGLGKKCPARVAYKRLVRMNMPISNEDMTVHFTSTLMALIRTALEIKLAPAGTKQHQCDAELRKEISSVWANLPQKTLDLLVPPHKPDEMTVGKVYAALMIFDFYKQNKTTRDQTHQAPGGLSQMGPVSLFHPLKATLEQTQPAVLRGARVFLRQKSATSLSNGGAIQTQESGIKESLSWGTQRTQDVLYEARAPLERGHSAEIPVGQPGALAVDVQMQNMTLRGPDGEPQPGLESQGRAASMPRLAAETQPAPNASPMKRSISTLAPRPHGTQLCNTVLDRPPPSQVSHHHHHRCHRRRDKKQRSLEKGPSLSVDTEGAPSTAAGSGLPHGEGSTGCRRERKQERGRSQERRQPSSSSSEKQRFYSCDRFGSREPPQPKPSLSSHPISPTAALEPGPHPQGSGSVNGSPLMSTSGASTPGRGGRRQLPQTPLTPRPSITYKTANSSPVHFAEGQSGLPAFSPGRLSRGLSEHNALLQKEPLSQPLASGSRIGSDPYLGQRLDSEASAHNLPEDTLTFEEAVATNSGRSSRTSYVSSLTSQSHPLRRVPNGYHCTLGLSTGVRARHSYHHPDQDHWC
Sequence (P54290 25-944 partner limits assumed): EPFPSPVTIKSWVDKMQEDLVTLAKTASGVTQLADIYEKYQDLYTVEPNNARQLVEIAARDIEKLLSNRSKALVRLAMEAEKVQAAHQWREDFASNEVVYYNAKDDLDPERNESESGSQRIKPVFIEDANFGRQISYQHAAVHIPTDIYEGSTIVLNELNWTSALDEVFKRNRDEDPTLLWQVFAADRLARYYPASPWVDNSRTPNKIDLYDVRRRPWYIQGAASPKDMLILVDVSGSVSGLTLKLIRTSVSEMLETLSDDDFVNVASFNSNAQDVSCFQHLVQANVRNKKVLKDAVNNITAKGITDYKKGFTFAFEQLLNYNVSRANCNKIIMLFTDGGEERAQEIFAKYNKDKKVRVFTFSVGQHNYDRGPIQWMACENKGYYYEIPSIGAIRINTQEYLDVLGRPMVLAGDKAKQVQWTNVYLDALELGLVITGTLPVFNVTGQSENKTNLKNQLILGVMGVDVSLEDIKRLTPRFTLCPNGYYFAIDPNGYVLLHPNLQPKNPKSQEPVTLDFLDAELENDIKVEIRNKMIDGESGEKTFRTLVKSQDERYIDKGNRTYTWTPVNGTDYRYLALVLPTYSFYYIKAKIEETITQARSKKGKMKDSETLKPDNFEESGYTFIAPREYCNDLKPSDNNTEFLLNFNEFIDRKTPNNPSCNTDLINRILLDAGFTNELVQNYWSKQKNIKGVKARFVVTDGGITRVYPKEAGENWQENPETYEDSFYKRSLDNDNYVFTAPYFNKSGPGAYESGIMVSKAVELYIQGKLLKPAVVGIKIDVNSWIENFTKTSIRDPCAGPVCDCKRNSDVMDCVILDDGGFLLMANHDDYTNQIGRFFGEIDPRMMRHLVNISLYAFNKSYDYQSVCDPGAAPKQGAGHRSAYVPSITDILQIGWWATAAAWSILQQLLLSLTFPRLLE
Sequence (P54290 945-1091 partner limits assumed): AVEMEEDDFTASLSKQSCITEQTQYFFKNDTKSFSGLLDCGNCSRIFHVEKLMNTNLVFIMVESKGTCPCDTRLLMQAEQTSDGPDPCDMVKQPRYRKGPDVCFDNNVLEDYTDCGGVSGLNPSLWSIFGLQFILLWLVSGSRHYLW
Sequence (P54283 whole entry partner): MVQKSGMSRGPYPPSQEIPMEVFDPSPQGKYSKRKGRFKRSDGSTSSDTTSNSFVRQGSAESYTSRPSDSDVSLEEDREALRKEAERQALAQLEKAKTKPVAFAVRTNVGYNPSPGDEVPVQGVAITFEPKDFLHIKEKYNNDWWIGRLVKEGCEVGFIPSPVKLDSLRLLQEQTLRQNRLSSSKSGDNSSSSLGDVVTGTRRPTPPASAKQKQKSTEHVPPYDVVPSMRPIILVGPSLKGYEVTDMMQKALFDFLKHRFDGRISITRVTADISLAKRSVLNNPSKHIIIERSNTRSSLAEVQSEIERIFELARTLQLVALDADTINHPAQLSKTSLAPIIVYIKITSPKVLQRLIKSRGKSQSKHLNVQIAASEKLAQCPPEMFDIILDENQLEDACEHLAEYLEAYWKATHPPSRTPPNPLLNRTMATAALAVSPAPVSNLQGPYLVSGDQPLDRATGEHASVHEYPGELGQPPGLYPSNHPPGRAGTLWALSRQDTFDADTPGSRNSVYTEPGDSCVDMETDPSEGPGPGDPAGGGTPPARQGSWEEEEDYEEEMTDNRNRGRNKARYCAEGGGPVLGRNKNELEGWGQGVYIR
Experiment: N-type calcium channel block, whole cell patch clamp in HEK 293 cells
Type: cell-based
Conditions: low frequency stimulation 0.067 Hz (tonic block); holding potential −80 mV to +10 mV; read-out: IC50 @ 0.067 Hz
Method: A. Transformation of HEK Cells: • N-type calcium channel blocking activity was assayed in human embryonic kidney cells, HEK 293, stably transfected with the rat brain N-type calcium channel subunits (α1B+α2δ+β1b cDNA subunits). […] Whole cell patch clamp experiments were performed using an Axopatch 200B amplifier (Axon Instruments, Burlingame, Calif.) linked to a personal computer equipped with pCLAMP software. […] Data were analyzed using Clampfit (Axon Instruments) and SigmaPlot 4.0 (Jandel Scientific).
pIC50: −log10 of the molar value.
VALUE KIND: pIC50

CC1CN(CC2CCOCC2)CC(C)N1C(=O)C[S+]([O-])C(c1ccccc1)c1ccccc1 (centres unmarked) [Compound 34] = < 5.18
O=C(CNc1ccc(Cl)cc1)N1CCN(C(c2ccccc2)c2ccccc2)CC1 [Compound 17] = < 5.12
COCC1CN(C(=O)C[S+]([O-])C(c2ccccc2)c2ccccc2)CCN1C(c1ccccc1)c1ccccc1 (centres unmarked) [Compound 56] = 6.74
CN(CC(=O)N1CCN(C(c2ccccc2)c2ccccc2Cl)CC1)C(c1ccccc1)c1ccccc1 (centres unmarked) [Compound 5] = < 5.33
CN1CCC(CN2CCN(C(=O)COC(c3ccccc3)c3ccccc3)CC2)CC1 [Compound 41] = < 5.32

List reported pIC50 for each of these molecules:
1. CN1CCC(C(=O)N2CCN(C(=O)CN(C)C(c3ccccc3)c3ccccc3)CC2)CC1 [Compound 11]
2. O=C(CSC(c1ccccc1)c1ccccc1)N1CCN(C(c2ccccc2)c2ccccc2)CC1 [Compound 44]
3. CN1CCC(C(=O)N2CCN(C(=O)CNC(c3ccccc3)c3ccccc3)CC2)CC1 [Compound 10]

["< 4.93", 6.22, "< 5.30"]
